Measured activity at 0.01 µM values are reported for all entries that follow.
# System: A-427 human pulmonary cancer cells
# Procedure Summary: MTT test, proliferation of A-427
# Study Conditions: Homo sapiens, A-427, 72 h, read-out: level of proliferation
Assay Readout: activity at 0.01 µM

C/C(=C\c1ccc2c(c1)C(C)(C)CCS2(=O)=O)c1ccc(C(=O)O)cc1	124%
CCCCCCCOc1cc2c(cc1/C(C)=C/c1ccc(C(=O)O)cc1)C(C)(C)CCS2(=O)=O	106%
C/C(=C\c1ccc2c(c1)C(C)(C)CCC2(C)C)c1ccc(C(=O)Nc2nnn[nH]2)cc1	92.7%
C/C(=C/c1ccc2c(c1)C(C)(C)CCC2(C)C)c1ccc(-c2nnn[nH]2)cc1	80.5%
CC1(C)CCC(C)(C)c2cc(/C=C(\c3ccc(-c4nnn[nH]4)cc3)C(F)(F)F)ccc21	82.3%
Cc1cc2c(cc1/C=C(\c1ccc(C(=O)O)cc1)C(F)(F)F)C(C)(C)CCC2(C)C	115%
